Measured Barnyardgrass plant response rating of individual entries
tested on: barnyardgrass (Echinochloa crus-galli); assay: Test A postemergence, visual injury rating 0-100; type: in vivo; conditions: 500 g ai/ha, 0 to 100 scale

[
  {
    "compound": "CC1=[N+]([O-])C(C(=O)Nc2cccc(F)c2F)C(c2ccc(C)c(Br)c2)C1 (racemic)",
    "measured.target": "barnyardgrass (Echinochloa crus-galli)",
    "Barnyardgrass plant response rating": 90
  },
  {
    "compound": "CC1=[N+]([O-])C(C(=O)Nc2cccc(F)c2F)C(c2ccc(C)c(C(F)(F)F)c2)C1 (racemic)",
    "measured.target": "barnyardgrass (Echinochloa crus-galli)",
    "Barnyardgrass plant response rating": 80
  },
  {
    "compound": "CC1=[N+]([O-])C(C(=O)Nc2cccc(F)c2F)C(c2cccc(C)c2C)C1 (racemic)",
    "measured.target": "barnyardgrass (Echinochloa crus-galli)",
    "Barnyardgrass plant response rating": 90
  },
  {
    "compound": "CC1=[N+]([O-])C(C(=O)Nc2ccc(F)cc2F)C(c2ccc(C(F)(F)F)cc2)C1 (racemic)",
    "measured.target": "barnyardgrass (Echinochloa crus-galli)",
    "Barnyardgrass plant response rating": 90
  },
  {
    "compound": "CC1=[N+]([O-])C(C(=O)Nc2cccc(F)c2F)C(c2cc(F)ccc2C)C1 (racemic)",
    "measured.target": "barnyardgrass (Echinochloa crus-galli)",
    "Barnyardgrass plant response rating": 80
  },
  {
    "compound": "COc1cc(C)cc(C2CC(C)=[N+]([O-])C2C(=O)Nc2cccc(F)c2F)c1 (stereo not drawn)",
    "measured.target": "barnyardgrass (Echinochloa crus-galli)",
    "Barnyardgrass plant response rating": 90
  },
  {
    "compound": "CC1=[N+]([O-])C(C(=O)Nc2cccc(F)c2F)C(c2cc(F)c(F)c(F)c2)C1 (stereo not drawn)",
    "measured.target": "barnyardgrass (Echinochloa crus-galli)",
    "Barnyardgrass plant response rating": 80
  },
  {
    "compound": "CC1=[N+]([O-])C(C(=O)Nc2cccc(F)c2F)C(c2ccc(F)c(Cl)c2)C1 (racemic)",
    "measured.target": "barnyardgrass (Echinochloa crus-galli)",
    "Barnyardgrass plant response rating": 90
  },
  {
    "compound": "COc1cccc(C2CC(C)=[N+]([O-])C2C(=O)Nc2cccc(F)c2F)n1 (racemic)",
    "measured.target": "barnyardgrass (Echinochloa crus-galli)",
    "Barnyardgrass plant response rating": 0
  },
  {
    "compound": "CC1=[N+]([O-])C(C(=O)Nc2cccc(F)c2F)C(c2ccccc2)C1 (racemic) [Compound 16]",
    "measured.target": "barnyardgrass (Echinochloa crus-galli)",
    "Barnyardgrass plant response rating": 90
  },
  {
    "compound": "CC1=[N+]([O-])[C@@H](C(=O)Nc2cccc(F)c2F)[C@H](c2cccc(Oc3ccc(F)cn3)c2)C1",
    "measured.target": "barnyardgrass (Echinochloa crus-galli)",
    "Barnyardgrass plant response rating": 90
  },
  {
    "compound": "CC1=[N+]([O-])C(C(=O)Nc2cccc(F)c2F)C(c2ccccc2C)C1 (racemic)",
    "measured.target": "barnyardgrass (Echinochloa crus-galli)",
    "Barnyardgrass plant response rating": 90
  },
  {
    "compound": "CC1=[N+]([O-])C(C(=O)Nc2cccc(F)c2F)C(c2cc(C)cc(Cl)c2)C1 (stereo not drawn)",
    "measured.target": "barnyardgrass (Echinochloa crus-galli)",
    "Barnyardgrass plant response rating": 90
  },
  {
    "compound": "CC1=[N+]([O-])C(C(=O)Nc2cccc(F)c2F)C(c2cccc(C)c2)C1 (racemic)",
    "measured.target": "barnyardgrass (Echinochloa crus-galli)",
    "Barnyardgrass plant response rating": 90
  },
  {
    "compound": "CC1=[N+]([O-])C(C(=O)Nc2ccccc2)C(c2ccc(F)c(F)c2)C1 (racemic)",
    "measured.target": "barnyardgrass (Echinochloa crus-galli)",
    "Barnyardgrass plant response rating": 0
  }
]
